All values here come from ChEMBL document CHEMBL1201862.

# Test system: SK-MEL-28
# assay-name: NCI tumour cell line growth inhibition, 48 h
Active and inactive are the calls of the source. Rule as the data show it: active = GI50 up to about 1.1 µM and inactive = higher.
attribute-measured: GI50

# annotated cases, reported GI50 shown
CCOC(=O)C(C(=O)COC(C)(C)C)[C@@H]1C=C[C@H](OC(C)=O)C1 (stereo partly drawn)
> 100 µM (inactive)
N#Cc1ccc(CSC2=C(c3ccc(Cl)cc3)S/C(=C3\SC(SCc4ccc(C#N)cc4)=C(c4ccc(Cl)cc4)S3)S2)cc1
> 100 µM (inactive)
CC(NC(=O)C(Cc1ccc(OC(=O)c2ccccc2)cc1)NC(=O)OC(C)(C)C)C(=O)NCC(=O)NC(Cc1ccccc1)C(=O)NN (stereo not drawn)
35.7 µM (inactive)
COc1ccc(C(=O)c2ccc(-n3cc(/C=C/[N+](=O)[O-])c4ccccc43)cc2)cc1
28.1 µM (inactive)

### Prompt Answer with reported GI50 of COc1cc(C2c3cc4c(cc3[C@@H](Nc3cnc5ccccc5c3)C3COC(=O)[C@H]23)OCO4)cc(OC)c1O (stereo partly drawn)
### Response 1.14 µM (inactive)

### Prompt Answer with reported GI50 of CC(C)c1ccc(/C=C2\N=C(c3ccc([N+](=O)[O-])cc3)OC2=O)cc1
### Response > 100 µM (inactive)

### Prompt Answer with reported GI50 of COC(=O)/C(=N/NC(=O)C[N+](C)(C)C)C(C(=O)OC)C(=O)C(=O)Nc1ccc(F)cc1 (stereo not drawn)
### Response > 100 µM (inactive)

### Prompt Answer with reported GI50 of CCCCCCCCCCCCOC1C(COCCN2CCCC2)OC2OC(C)(C)OC21 (stereo not drawn)
### Response 1.72 µM (inactive)

* * *

# Test system: SF-295
# assay-name: NCI tumour cell line growth inhibition, 48 h
Active and inactive are the calls of the source. No stated cut-off is given here; in the data, active = GI50 up to about 1.1 µM and inactive = higher.
Parameter call: string, one of active, inactive

N#C/C(=C\c1c[nH]c2ccccc12)C(=O)c1ccc(O)c(O)c1
inactive
Cc1ccc(S(=O)(=O)Nc2ccccc2C=O)cc1
inactive

### Prompt What outcome does the record of this test show for CCCCCC(O)C(O)CCC[C@H](O)[C@H]1CC[C@H]([C@H]2CC[C@H]([C@H](O)CCCCCCCCCCCCC3=C[C@H](C)OC3=O)O2)O1 (stereo partly drawn) ?
### Response inactive

### Prompt What outcome does the record of this test show for Cc1ccc(Cc2n[nH]c(=O)n2/N=C\CC/C=N\n2c(Cc3ccc(C)cc3)n[nH]c2=O)cc1 ?
### Response inactive

### Prompt What outcome does the record of this test show for CC1C(c2ccc3c(c2)OCO3)c2cc3c(cc2OC1N1CCCCC1)OCO3 (stereo not drawn) ?
### Response inactive

### Prompt What outcome does the record of this test show for CC(=O)OC1COC(N2CCc3cc([N+](=O)[O-])ccc32)C(OC(C)=O)C1OC(C)=O (stereo not drawn) ?
### Response inactive

### Prompt What outcome does the record of this test show for CCN(CC)CCCNc1ncc(C)c2[nH]c3ccncc3c12 ?
### Response inactive

### Prompt What outcome does the record of this test show for O=C(c1cc2ccccc2[nH]1)N1C2CCC1CN(CCOC(c1ccc(F)cc1)c1ccc(F)cc1)CC2 (stereo not drawn) ?
### Response inactive

### Prompt What outcome does the record of this test show for C=CCN(N=O)C(=O)N(CCCC(NC(C)=O)C(=O)NCc1ccccc1)Cc1ccccc1 (stereo not drawn) ?
### Response inactive

### Prompt What outcome does the record of this test show for O=C(Nc1ccc2ncccc2c1)Nc1ccc2ncccc2c1 ?
### Response inactive

### Prompt What outcome does the record of this test show for CCN(CC)c1ccc(/N=C2/C=CC(=C(C#N)C#N)c3ccccc32)c(C)c1 ?
### Response inactive

### Prompt What outcome does the record of this test show for COC(=O)NN(C(=O)OC)c1c(-c2ccccc2)nc(SC)n1N ?
### Response inactive

### Prompt What outcome does the record of this test show for O=C1CN2CCN(CC2)CC(=O)Nc2ccc(cc2)S(=O)(=O)c2ccc(cc2)NC(=O)CN2CCN(CC2)CC(=O)Nc2ccc(cc2)S(=O)(=O)c2ccc(cc2)N1 ?
### Response inactive

### Prompt What outcome does the record of this test show for COC(=O)CCC(NC(=S)N/N=C(\C)c1ccc[nH]1)C(=O)OC (stereo not drawn) ?
### Response inactive

### Prompt What outcome does the record of this test show for C/C(=N/NC(=S)Nc1ccc(C)cc1)c1ccccn1 ?
### Response active

### Prompt What outcome does the record of this test show for CCOC(=O)C1=C(C(=O)OCC)C2c3ccccc3C=CN2C(C(=O)OCC)=C(SC)S1 (stereo not drawn) ?
### Response inactive

### Prompt What outcome does the record of this test show for O=[N+]([O-])c1ccc(/N=N/c2c(O)ccc3cc(S(=O)(=O)O)cc(S(=O)(=O)O)c23)cc1 ?
### Response inactive

### Prompt What outcome does the record of this test show for CC1(C)N=C(N)N=C(N)N1c1ccc(OCCCOc2ccccc2)c(Cl)c1 ?
### Response active

### Prompt What outcome does the record of this test show for COc1ccc([C@@H]2OC(=O)C3C2C(=O)O[C@H]3c2ccc(OC)c(OC)c2)cc1OC (stereo partly drawn) ?
### Response inactive

### Prompt What outcome does the record of this test show for CC(=O)NC(ON1C(=O)COc2ccccc21)C(Cl)(Cl)Cl (stereo not drawn) ?
### Response inactive

### Prompt What outcome does the record of this test show for O=C1Nc2ccccc2S/C1=C\c1ccccc1C(F)(F)F ?
### Response inactive

### Prompt What outcome does the record of this test show for Cc1ccc(S(=O)(=O)n2c3ccc(Br)cc3c3nc4ccccc4nc32)cc1 ?
### Response inactive
